Values compiled from patent US12077503B2.

# System: Kochia (Kochia scoparia)
# MEASUREMENT PROTOCOL: Test A preemergence
# Format: in vivo
# REPORTED CONDITIONS: Bassia scoparia, pre-emergence, 240 h, 500 g ai/ha, Preemergence, visual injury vs untreated controls after approximately 10 d; read-out: Kochia plant response rating (0 to 100 scale where 0 is no effect and 100 is complete control)
Listed molecules paired with reported pest or weed control at 500 g/ha

{"SMILES INPUT": "CCOc1ccc([C@H]2CNC(=O)[C@@H]2C(=O)Nc2cccc(F)c2F)cc1", "OUTPUT UNIT": "%", "pest or weed control at 500 g/ha": 20}
{"SMILES INPUT": "CC(C)c1cccc([C@H]2CN(C)C(=O)[C@@H]2C(=O)Nc2ccc(F)cc2F)c1", "OUTPUT UNIT": "%", "pest or weed control at 500 g/ha": 90}
{"SMILES INPUT": "CN1C[C@H](c2cccc(C3CC3)c2)[C@@H](C(=O)Nc2ccccc2F)C1=O", "OUTPUT UNIT": "%", "pest or weed control at 500 g/ha": 80}
{"SMILES INPUT": "O=C1NC[C@H](c2ccc3c(c2)CCO3)[C@H]1C(=O)Nc1ccccc1F", "OUTPUT UNIT": "%", "pest or weed control at 500 g/ha": 0}
{"SMILES INPUT": "CCOc1ccc([C@H]2CN(C)C(=O)[C@@H]2C(=O)Nc2ccccc2F)cc1", "OUTPUT UNIT": "%", "pest or weed control at 500 g/ha": 90}
{"SMILES INPUT": "O=C1NC[C@H](c2cncc(C(F)(F)F)c2)[C@H]1C(=O)Nc1ccccc1F", "OUTPUT UNIT": "%", "pest or weed control at 500 g/ha": 20}
{"SMILES INPUT": "Cc1c(F)ccc([C@H]2CN(C)C(=O)[C@@H]2C(=O)Nc2ccccc2F)c1F", "OUTPUT UNIT": "%", "pest or weed control at 500 g/ha": 80}
{"SMILES INPUT": "COc1c(F)ccc([C@H]2CN(C)C(=O)[C@@H]2C(=O)Nc2ccc(F)cc2F)c1Cl", "OUTPUT UNIT": "%", "pest or weed control at 500 g/ha": 90}
{"SMILES INPUT": "Cc1c(F)cccc1NC(=O)[C@H]1C(=O)NC[C@@H]1c1cccc(C(F)(F)F)c1", "OUTPUT UNIT": "%", "pest or weed control at 500 g/ha": 90}
{"SMILES INPUT": "CN1C[C@H](c2cc(F)cc(F)c2)[C@@H](C(=O)Nc2ncc(C(F)(F)F)cc2F)C1=O", "OUTPUT UNIT": "%", "pest or weed control at 500 g/ha": 0}

----------
Listed compounds paired with reported pest or weed control at 500 g/ha
# System: blackgrass (Alopecurus myosuroides)
# MEASUREMENT PROTOCOL: Test A postemergence
# Format: in vivo
# REPORTED CONDITIONS: Alopecurus myosuroides, post-emergence, 240 h, 500 g ai/ha, postemergence; 0 to 100 scale, 0 is no effect, 100 is complete control; read-out: Blackgrass plant response rating

{"COMPOUND": "CN1CC[C@H](c2cccc(C(F)(F)F)c2)[C@@H](C(=O)Nc2cccc(F)c2Cl)C1=O [Compound 1158]", "OUTPUT UNIT": "%", "pest or weed control at 500 g/ha": 40}
{"COMPOUND": "O=C1NC[C@H](c2cccc(I)c2)[C@H]1C(=O)Nc1ccccc1F [Compound 1160]", "OUTPUT UNIT": "%", "pest or weed control at 500 g/ha": 50}
{"COMPOUND": "CN1C[C@H](c2ccc(C(F)(F)F)cc2)[C@@](F)(C(=O)Nc2cccc(F)c2F)C1=O (racemic) [Compound 1151]", "OUTPUT UNIT": "%", "pest or weed control at 500 g/ha": 60}
{"COMPOUND": "O=C1NC[C@H](c2cccc(C(F)(F)F)c2)C1C(=O)Nc1c(F)cccc1CO (stereo partly shown) [Compound 1240]", "OUTPUT UNIT": "%", "pest or weed control at 500 g/ha": 0}

----------
# Test system: ryegrass, Italian (Italian ryegrass, Lolium multiflorum)
# MEASUREMENT PROTOCOL: Test A preemergence
# Type: in vivo
# REPORTED CONDITIONS: Lolium multiflorum, pre-emergence, 240 h, 500 g ai/ha, preemergence; 0 to 100 scale where 0 is no effect and 100 is complete control; read-out: Ryegrass, Italian plant response rating
Listed compounds paired with reported pest or weed control at 500 g/ha

{"SMILES INPUT": "CN1C[C@H](c2ccc(C(F)F)cc2)[C@@H](C(=O)Nc2ccc(F)c(F)c2F)C1=O", "OUTPUT UNIT": "%", "pest or weed control at 500 g/ha": 60}
{"SMILES INPUT": "Cc1ccc([C@H]2CCN(C)C(=O)[C@@H]2C(=O)Nc2ccc(F)c(F)c2F)cc1", "OUTPUT UNIT": "%", "pest or weed control at 500 g/ha": 80}
{"SMILES INPUT": "Cc1nc([C@H]2CNC(=O)[C@@H]2C(=O)Nc2ccccc2F)cs1", "OUTPUT UNIT": "%", "pest or weed control at 500 g/ha": 0}
{"SMILES INPUT": "COc1ccc([C@H]2CN(C)C(=O)[C@@H]2C(=O)Nc2cccc(F)c2F)c(OC)c1", "OUTPUT UNIT": "%", "pest or weed control at 500 g/ha": 50}
{"SMILES INPUT": "O=C1NC[C@H](c2nccs2)[C@H]1C(=O)Nc1ccccc1F", "OUTPUT UNIT": "%", "pest or weed control at 500 g/ha": 0}
{"SMILES INPUT": "COc1cc([C@H]2CN(C)C(=O)[C@@H]2C(=O)Nc2ccccc2F)ccc1F", "OUTPUT UNIT": "%", "pest or weed control at 500 g/ha": 0}
{"SMILES INPUT": "Cc1ccccc1NC(=O)[C@H]1C(=O)N(C)C[C@@H]1c1ccc(C(F)(F)F)cc1", "OUTPUT UNIT": "%", "pest or weed control at 500 g/ha": 50}
{"SMILES INPUT": "CSc1ccccc1NC(=O)[C@H]1C(=O)N(C)CC[C@@H]1c1ccc(C)cc1", "OUTPUT UNIT": "%", "pest or weed control at 500 g/ha": 0}
{"SMILES INPUT": "Cc1nc([C@H]2CN(C)C(=O)[C@@H]2C(=O)Nc2cccc(F)c2F)cs1", "OUTPUT UNIT": "%", "pest or weed control at 500 g/ha": 20}
{"SMILES INPUT": "O=C1NC[C@H](c2cccc(I)c2)[C@H]1C(=O)Nc1ccccc1F", "OUTPUT UNIT": "%", "pest or weed control at 500 g/ha": 0}

----------
# Test system: ryegrass, Italian (Italian ryegrass, Lolium multiflorum)
# MEASUREMENT PROTOCOL: Test A postemergence
# Assay type: in vivo
# REPORTED CONDITIONS: Lolium multiflorum, post-emergence, 240 h, 125 g ai/ha, Postemergence; visual injury after approximately 10 d; 0 to 100 scale where 0 is no effect and 100 is complete control; read-out: Plant response rating, Ryegrass, Italian
Listed compounds paired with reported pest or weed control at 125 g/ha
ASSAY ENDPOINT: pest or weed control at 125 g/ha

{"COMPOUND": "O=C(Nc1ccccc1F)[C@H]1C(=S)NC[C@@H]1c1ccc(Cl)cc1 (racemic)", "TARGET OR TEST SYSTEM": "ryegrass, Italian (Italian ryegrass, Lolium multiflorum)", "ASSAY ENDPOINT": "pest or weed control at 125 g/ha", "RESULT": "0%"}
{"COMPOUND": "CN1CC[C@H](c2ccccc2C(F)(F)F)[C@@H](C(=O)Nc2ccccc2C(F)(F)F)C1=O", "TARGET OR TEST SYSTEM": "ryegrass, Italian (Italian ryegrass, Lolium multiflorum)", "ASSAY ENDPOINT": "pest or weed control at 125 g/ha", "RESULT": "0%"}
{"COMPOUND": "CN1C[C@H](c2cc(F)cc(Cl)c2)[C@@H](C(=O)Nc2ccccc2F)C1=O", "TARGET OR TEST SYSTEM": "ryegrass, Italian (Italian ryegrass, Lolium multiflorum)", "ASSAY ENDPOINT": "pest or weed control at 125 g/ha", "RESULT": "20%"}

----------
# Test system: rice (Oryra sativa)
# MEASUREMENT PROTOCOL: Test B flooded paddy test
# Format: in vivo
# REPORTED CONDITIONS: Oryza sativa, 250 g ai/ha, Flood; 0 to 100 scale where 0 is no effect and 100 is complete control; read-out: Rice plant response rating

{"COMPOUND": "CN1C[C@H](c2ccc(C(F)F)cc2)[C@@H](C(=O)Nc2ccc(F)c(F)c2F)C1=O", "OUTPUT UNIT": "%", "pest or weed control at 250 g/ha": 50}
{"COMPOUND": "CN1C[C@H](c2ccccc2)[C@@H](C(=O)Nc2cccc(F)c2F)C1=O", "OUTPUT UNIT": "%", "pest or weed control at 250 g/ha": 30}
{"COMPOUND": "CCc1cc(CC)cc([C@H]2CNC(=O)[C@@H]2C(=O)Nc2cccc(F)c2F)c1", "OUTPUT UNIT": "%", "pest or weed control at 250 g/ha": 20}
{"COMPOUND": "CN1CC[C@H](c2ccc(OC(F)(F)F)cc2)[C@@H](C(=O)Nc2cccc(Cl)c2F)C1=O", "OUTPUT UNIT": "%", "pest or weed control at 250 g/ha": 0}
{"COMPOUND": "O=C(Nc1ccccc1F)[C@H]1C(=S)NC[C@@H]1c1ccc(C(F)(F)F)cc1 (racemic)", "OUTPUT UNIT": "%", "pest or weed control at 250 g/ha": 0}
{"COMPOUND": "Cc1ccc([C@H]2CN(C)C(=O)[C@@H]2C(=O)Nc2cccc(F)c2F)cc1C", "OUTPUT UNIT": "%", "pest or weed control at 250 g/ha": 0}
{"COMPOUND": "C=C(C)c1ccc([C@H]2CN(C)C(=O)[C@@H]2C(=O)Nc2ccc(F)c(F)c2F)cc1", "OUTPUT UNIT": "%", "pest or weed control at 250 g/ha": 60}
